TEST NAME: Compound solubility in water
Type: physicochemical
Known solubility of a selection of compounds
RECORDED METRIC: solubility (µg/mL)

{"COMPOUND": "Cc1cc(-c2ccc3ncn(C)c3c2)nn2c(C(=O)N[C@H](C3CC3)C(F)(F)F)cnc12", "ASSAY RESULT": 1}
{"COMPOUND": "Cc1cc(-c2cccc(F)c2)nn2c(C(=O)NC(C)(C)C3CC3)ncc12", "ASSAY RESULT": 8}
{"COMPOUND": "Cc1cc(N2CCC(F)(F)C2)nn2c(C(=O)NC(C3CC3)C(F)(F)F)cnc12 (stereo not drawn)", "ASSAY RESULT": 8.2}
{"COMPOUND": "Cc1cc(-c2ccc(F)cc2)nn2c(C(=O)N[C@@H](C)C3CC3)ncc12", "ASSAY RESULT": 6.9}
{"COMPOUND": "Cc1cc(-c2ccc(F)cc2C#N)nn2c(C(=O)NC(C3CC3)C(F)(F)F)cnc12 (stereo not drawn)", "ASSAY RESULT": 0.7}
{"COMPOUND": "Cc1cc(-c2cncc(Cl)c2)nn2c(C(=O)N[C@H](C3CC3)C(F)(F)F)cnc12", "ASSAY RESULT": 0.3}
{"COMPOUND": "Cc1cc(-c2cncc(Cl)c2)nn2c(C(=O)N[C@@H](C3CC3)C(F)(F)F)cnc12", "ASSAY RESULT": 0.3}
{"COMPOUND": "Cc1cc(-c2ccc3ocnc3c2)nn2c(C(=O)N[C@@H](C3CC3)C(F)(F)F)cnc12", "ASSAY RESULT": 0.5}
{"COMPOUND": "Cc1cc2ncc(C(=O)Nc3ccc4c(c3)CCC4)n2nc1Cl", "ASSAY RESULT": 1.5}

###

TEST NAME: Compound solubility in water
Type: physicochemical
RECORDED METRIC: solubility (µg/mL)

{"COMPOUND": "Cc1cc(N2CCN(C(C)C)C2=O)nn2c(C(=O)NC(C3CC3)C(F)(F)F)cnc12 (stereo not shown)", "RECORDED METRIC": "solubility", "ASSAY RESULT": 18.3}
{"COMPOUND": "Cc1cc(C)c2cnc(C(=O)NC(C)(C)C3CC3)n2n1", "RECORDED METRIC": "solubility", "ASSAY RESULT": 24}
{"COMPOUND": "Cc1cc(C)c2ncc(C(=O)Nc3ccc4c(c3)CCC4)n2n1", "RECORDED METRIC": "solubility", "ASSAY RESULT": 0.9}
{"COMPOUND": "Cc1cc(-c2ccc3ocnc3c2)nn2c(C(=O)NC(C)C3CC3)cnc12 (stereo not shown)", "RECORDED METRIC": "solubility", "ASSAY RESULT": 1.4}
{"COMPOUND": "Cc1cc(-c2cc(C)c3ncc(C(=O)N[C@H](C4CC4)C(F)(F)F)n3n2)sn1", "RECORDED METRIC": "solubility", "ASSAY RESULT": 3.6}
{"COMPOUND": "Cc1cc(-c2cccc3ncoc23)nn2c(C(=O)NC(C)C(F)(F)F)cnc12 (stereo not shown)", "RECORDED METRIC": "solubility", "ASSAY RESULT": 4.4}
{"COMPOUND": "CCC(NC(=O)c1cnc2ccc(Cl)nn12)c1ccccc1 (stereo not shown)", "RECORDED METRIC": "solubility", "ASSAY RESULT": 15.4}
{"COMPOUND": "COc1cccc(-c2cc(C)c3ncc(C(=O)NC(C4CC4)C4CC4)n3n2)c1", "RECORDED METRIC": "solubility", "ASSAY RESULT": 2.7}
{"COMPOUND": "CCCCCCOC1CCC(NC(=O)c2cnc3cc(C)c(Cl)nn23)CC1 (stereo not shown)", "RECORDED METRIC": "solubility", "ASSAY RESULT": 16.8}
{"COMPOUND": "CCCCCO[C@H]1CC[C@H](NC(=O)c2cnc3c(C)cc(C)nn23)CC1", "RECORDED METRIC": "solubility", "ASSAY RESULT": 3.9}
